# credit: PubChem BioAssay (NCI)

- Tested on: SK-MEL-5 melanoma
- Assay Summary: NCI-60 one-dose screen, 48 h
- Measurement Parameters: 10 µM unless noted
Compounds without any hit were thinned out: in the full panel of roughly 83,000, 20% have a hit. Calls of active or inactive are those of the source. Rule for the calls: active = growth percent below 10; inactive = the rest.
# output must be one of 1 (active), -1 (inactive)

Task: Which result was noted for this compound in the test: COc1cc2oc(-c3cccc(NC(=O)c4cc(NC(=O)[C@H](C)N)ccc4Cl)c3)cc(=O)c2c(OC)c1OC
Output: -1

Task: Which result was noted for this compound in the test: CC(=O)Nc1cccc(-n2cnc3cc(-c4ccc(O)cc4)ccc32)c1
Output: -1

Task: Which result was noted for this compound in the test: Cc1nn(-c2ccccc2)cc1/C=N/Nc1nc(Nc2ccccc2)nc(Nc2ccc(S(N)(=O)=O)cc2)n1
Output: 1

Task: Which result was noted for this compound in the test: COc1ccc([C@@H]2[C@@H](O)C(=O)N2c2cc(OC)c(OC)c(OC)c2)cc1Cl
Output: 1

Task: Which result was noted for this compound in the test: O=C1c2c(O)cc(O)cc2O[C@@H](c2ccc(O)cc2)[C@@H]1c1c(O)cc(O)c2c(=O)cc(-c3ccc(O)c(O)c3)oc12
Output: -1

Task: Which result was noted for this compound in the test: CC[C@H](C)[C@H]1NC(=O)[C@@H]([C@H](O)C(C)C)NC(=O)[C@@H](C)N(C)C(=O)[C@H](C)N(C)C(=O)[C@H](CC(C)C)NC(=O)[C@H](CC(C)C)N(C)C(=O)[C@H](C)N(C)C1=O
Output: 1

Task: Which result was noted for this compound in the test: O=C(CCCCCCN1CC(=O)N2[C@@H](c3cc(F)cc(F)c3)c3[nH]c4ccccc4c3C[C@H]2C1=O)NO
Output: -1
